Provenance of the data: patent US12528814B2

Biological target: IRAK4 (Homo sapiens (Human), UniProt Q9NWZ3)
Sequence (Q9NWZ3 whole entry): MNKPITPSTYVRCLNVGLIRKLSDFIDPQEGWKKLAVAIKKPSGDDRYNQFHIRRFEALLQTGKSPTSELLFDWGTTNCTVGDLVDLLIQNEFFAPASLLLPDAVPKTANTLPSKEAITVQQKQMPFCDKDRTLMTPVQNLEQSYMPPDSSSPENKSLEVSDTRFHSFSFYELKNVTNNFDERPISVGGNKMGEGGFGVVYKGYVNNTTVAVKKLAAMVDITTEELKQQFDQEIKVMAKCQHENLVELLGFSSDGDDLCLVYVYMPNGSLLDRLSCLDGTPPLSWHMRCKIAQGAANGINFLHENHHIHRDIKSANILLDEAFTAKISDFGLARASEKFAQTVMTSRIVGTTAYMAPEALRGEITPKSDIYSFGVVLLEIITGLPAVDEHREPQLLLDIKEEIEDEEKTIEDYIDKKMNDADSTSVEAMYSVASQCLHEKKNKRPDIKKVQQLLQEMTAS
Assay: IRAK4 Degradation HiBiT Assay
Conditions: read-out: Cellular IRAK4 HiBiT: DC50; Table 5; multiple runs; HiBiT-tagged Jurkat cells, 4 hrs
READOUT NAME: DC50

# count of solved cases: 10
MOLECULE	SYSTEM NAME	DC50
CNc1cc(-c2ccc3cc(C#N)cnn23)ncc1-c1nnc(N2CC3(CCN(C(=O)COc4cc(-c5scnc5C)ccc4CNC(=O)[C@@H]4C[C@@H](O)CN4C(=O)[C@@H](NC(=O)C4(F)CC4)C(C)(C)C)CC3)C2)s1 [Example 179]	IRAK4 (Homo sapiens (Human), UniProt Q9NWZ3)	57 nM
CC(C)Nc1cc(-c2ccc3cc(C#N)cnn23)ncc1-c1nnc(N2CCN(C3CCN(Cc4ccc5c(c4)C(=O)N(C4CCC(=O)NC4=O)C5=O)CC3)CC2)s1 (stereo not shown) [Example 18]	IRAK4 (Homo sapiens (Human), UniProt Q9NWZ3)	113 nM
CNc1cc(-c2ccc3cc(C#N)cnn23)ncc1-c1nnc(N2CCCC3(CN(Cc4ccc5c(c4)C(=O)N(C4CCC(=O)NC4=O)C5=O)C3)C2)s1 (stereo not shown) [Example 122]	IRAK4 (Homo sapiens (Human), UniProt Q9NWZ3)	> 9980 nM
CNc1cc(-c2ccc3cc(C#N)cnn23)ncc1-c1nnc(N2CCN(C3CCN(C(=O)c4ccc5c(c4)C(=O)N(C4CCC(=O)NC4=O)C5=O)CC3)CC2)s1 (stereo not shown) [Example 98]	IRAK4 (Homo sapiens (Human), UniProt Q9NWZ3)	6.58 nM
CNc1cc(-c2ccc3cc(C#N)cnn23)ncc1-c1nnc([C@H]2CC[C@H](NC(=O)CN3CCC4(CC3)CN(c3ccc5c(c3)C(=O)N(C3CCC(=O)NC3=O)C5=O)C4)CC2)s1 (stereo partly shown) [Example 64]	IRAK4 (Homo sapiens (Human), UniProt Q9NWZ3)	14.9 nM
CC(C)Nc1cc(-c2ccc3cc(C#N)cnn23)ncc1-c1nnc(N2CCN(C(=O)C3CCN(Cc4ccc5c(c4)C(=O)N(C4CCC(=O)NC4=O)C5=O)CC3)CC2)s1 (stereo not shown) [Example 13]	IRAK4 (Homo sapiens (Human), UniProt Q9NWZ3)	27 nM
CNc1cc(-c2ccc3cc(C#N)cnn23)ncc1-c1nnc([C@H]2CC[C@@H](NC(=O)CN3CCN(c4ccc5c(c4)C(=O)N(C4CCC(=O)NC4=O)C5=O)CC3)CC2)s1 (stereo partly shown) [Example 126]	IRAK4 (Homo sapiens (Human), UniProt Q9NWZ3)	63.1 nM
CNc1cc(-c2ccc3cc(C#N)cnn23)ncc1-c1nnc(N2CCC(NC(=O)CCC(=O)N[C@H](C(=O)N3C[C@H](O)C[C@H]3C(=O)N[C@@H](C)c3ccc(-c4scnc4C)cc3)C(C)(C)C)CC2)s1 [Example 158]	IRAK4 (Homo sapiens (Human), UniProt Q9NWZ3)	1210 nM
CNc1cc(-c2ccc3cc(C#N)cnn23)ncc1-c1nnc([C@H]2CC[C@H](N(C)C(=O)Cc3ccc4c(c3)CN(C3CCC(=O)NC3=O)C4=O)CC2)s1 (stereo partly shown) [Example 168]	IRAK4 (Homo sapiens (Human), UniProt Q9NWZ3)	2.63 nM
CNc1cc(-c2ccc3cc(C#N)cnn23)ncc1-c1nnc(N2CC3CCC(C2)N3C2CCN(C(=O)C[C@H](NC(=O)[C@@H]3C[C@@H](O)CN3C(=O)[C@@H](NC(=O)C3(F)CC3)C(C)(C)C)c3ccc(-c4scnc4C)cc3)CC2)s1 [Example 166]	IRAK4 (Homo sapiens (Human), UniProt Q9NWZ3)	67.7 nM

Proceed to the following item.
Q) Requested field: DC50. Item: CC(C)Nc1cc(-c2ccc3cc(C#N)cnn23)ncc1-c1nnc([C@H]2CC[C@H](NC(=O)CCOCCOCCNc3cccc4c3C(=O)N(C3CCC(=O)NC3=O)C4=O)CC2)s1 (stereo partly shown) [Example 3]
A) 30.1 nM

---

Biological target: IRAK4 (Homo sapiens (Human), UniProt Q9NWZ3)
Assay: IRAK4 Degradation HiBiT Assay
Conditions: read-out: Cellular IRAK4 HiBiT: DC50; Table 5; multiple runs; HiBiT-tagged Jurkat cells, 4 hrs
READOUT NAME: DC50
The answer should read as a number with its unit following.

Observe how each entry below is paired with its result.
MOLECULE	DC50
Cc1ncsc1-c1ccc(CNC(=O)[C@@H]2C[C@@H](O)CN2C(=O)[C@@H](NC(=O)C2(F)CC2)C(C)(C)C)c(OCC(=O)N2CCC3(CC2)CCN(c2nnc(-c4cnc(-c5ccc6cc(C#N)cnn56)cc4NC(C)C)s2)CC3)c1	319 nM
CNc1cc(-c2ccc3cc(C#N)cnn23)ncc1-c1nnc(N2CCN(C(=O)N3CCN(Cc4ccc5c(c4)C(=O)N(C4CCC(=O)NC4=O)C5=O)CC3)CC2)s1 (stereo not drawn)	15.5 nM

Let us examine a further case.
Q) Which DC50 value belongs to `CNc1cc(-c2ccc3cc(C#N)cnn23)ncc1-c1nnc(N2CCC(NC(=O)C[C@H](NC(=O)[C@@H]3C[C@@H](O)CN3C(=O)[C@@H](NC(=O)C3(F)CC3)C(C)(C)C)c3ccc(-c4scnc4C)cc3)CC2)s1` ?
A) 231 nM

---

Molecular target: UniProt:Q9NWZ3
Experiment: IRAK4 Degradation HiBiT Assay
Conditions: read-out: Cellular IRAK4 HiBiT: DC50; Table 5; multiple runs; HiBiT-tagged Jurkat cells, 4 hrs
Binary call on DC50 with cut-off 40 nM: strictly below means 1, and equality or higher means 0.

MOLECULE	CATEGORY LABEL
CC(C)Nc1cc(-c2ccc3cc(C#N)cnn23)ncc1-c1nnc(N2CCN(C(=O)CCOCCOCCOCCNc3cccc4c3C(=O)N(C3CCC(=O)NC3=O)C4=O)CC2)s1 (stereo not shown)	0
CC(C)Nc1cc(-c2ccc3cc(C#N)cnn23)ncc1-c1nnc(N2CCN(C3CCN(C[C@H]4CCN(c5ccc6c(c5)C(=O)N(C5CCC(=O)NC5=O)C6=O)C4)CC3)CC2)s1 (stereo partly shown)	0
CNc1cc(-c2ccc3cc(C#N)cnn23)ncc1-c1nnc(C23CCC(NC(=O)CCOCCNc4ccc5c(c4)C(=O)N(C4CCC(=O)NC4=O)C5=O)(CC2)CC3)s1 (stereo not shown)	1
CC(C)Nc1cc(-c2ccc3cc(C#N)cnn23)ncc1-c1nnc(N2CCN(CC3CCN(c4ccc(C(=O)NC5CCC(=O)NC5=O)nc4)CC3)CC2)s1 (stereo not shown)	0
CC(C)Nc1cc(-c2ccc3cc(C#N)cnn23)ncc1-c1nnc(N2CCC3(CCN(C(=O)c4ccc5c(c4)C(=O)N(C4CCC(=O)NC4=O)C5)CC3)CC2)s1 (stereo not shown)	1

Q) Given the entry CNc1cc(-c2ccc3cc(C#N)cnn23)ncc1-c1nnc([C@H]2CC[C@@H](NC(=O)CCOCCNc3ccc4c(c3)C(=O)N(C3CCC(=O)NC3=O)C4=O)CC2)s1 (stereo partly shown) , would its reported DC50 be below 40 nM?
A) 0

Q) Is the reported DC50 for `Cc1ncsc1-c1ccc(CNC(=O)[C@@H]2C[C@@H](O)CN2C(=O)[C@@H](NC(=O)CCCC(=O)N2CCN(c3nnc(-c4cnc(-c5ccc6cc(C#N)cnn56)cc4NC(C)C)s3)CC2)C(C)(C)C)cc1` strictly below 40 nM?
A) 0

Q) Hello, is DC50 of the following molecule strictly smaller than 40 nM? CC(C)Nc1cc(-c2ccc3cc(C#N)cnn23)ncc1-c1nnc(N2CCC3(CCN(C(=O)CNc4cccc5c4C(=O)N(C4CCC(=O)NC4=O)C5=O)CC3)CC2)s1 (stereo not shown)
A) 0

Q) I'd appreciate it if you could check whether CNc1cc(-c2ccc3cc(C#N)cnn23)ncc1-c1nnc([C@H]2CC[C@@H](NC(=O)[C@H]3C[C@@H](OCCNc4cccc5c4C(=O)N(C4CCC(=O)NC4=O)C5=O)C3)CC2)s1 (stereo partly shown) has DC50 smaller than 40 nM.
A) 1

Q) Report whether reported DC50 is lower than 40 nM (strictly) for `Cc1ncsc1-c1ccc([C@H](C)NC(=O)[C@@H]2C[C@@H](O)CN2C(=O)[C@@H](NC(=O)CCCCCCCC(=O)N2CCN(c3nnc(-c4cnc(-c5ccc6cc(C#N)cnn56)cc4NC(C)C)s3)CC2)C(C)(C)C)cc1`
A) 0

---

Molecular target: IRAK4 (Homo sapiens (Human), UniProt Q9NWZ3)
Assay: IRAK4 Degradation HiBiT Assay
Settings: read-out: Cellular IRAK4 HiBiT: DC50; Table 5; multiple runs; HiBiT-tagged Jurkat cells, 4 hrs
Could you please mark 1 (yes) for values of DC50 below 0.04 µM and 0 (no) for values at or above it?

Previously resolved entries follow.
COMPOUND	CATEGORY LABEL
CNc1cc(-c2ccc3cc(C#N)cnn23)ncc1-c1nnc(C23CCC(NC(=O)C4CCN(c5ccc6c(c5)C(=O)N(C5CCC(=O)NC5=O)C6=O)CC4)(CC2)CC3)s1 (stereo not drawn)	0 (no)
CN[C@@H](C)C(=O)N[C@H](C(=O)N1CCC[C@H]1c1nc(C(=O)c2cccc(OCCOCCC(=O)N3CCN(c4nnc(-c5cnc(-c6ccc7cc(C#N)cnn67)cc5NC(C)C)s4)CC3)c2)cs1)C1CCCCC1	0 (no)
CNc1cc(-c2ccc3cc(C#N)cnn23)ncc1-c1nnc([C@H]2CC[C@H](NC(=O)C34CC(C(=O)N[C@H](C(=O)N5C[C@H](O)C[C@H]5C(=O)N[C@@H](C)c5ccc(-c6scnc6C)cc5)C(C)(C)C)(C3)C4)CC2)s1	0 (no)
CNc1cc(-c2ccc3cc(C#N)cnn23)ncc1-c1nnc([C@H]2CC[C@H](NC(=O)[C@H]3C[C@@H](OCCNc4cccc5c4C(=O)N(C4CCC(=O)NC4=O)C5=O)C3)CC2)s1 (stereo partly drawn)	1 (yes)

Q) Report whether reported DC50 is lower than 0.04 µM (strictly) for CC(C)Nc1cc(-c2ccc3cc(C#N)cnn23)ncc1-c1nnc(N2CCC(NC(=O)C3CCN(c4ccc5c(c4)C(=O)N(C4CCC(=O)NC4=O)C5=O)CC3)CC2)s1 (stereo not drawn)
A) 0 (no)

Q) Is DC50 of `CNc1cc(-c2ccc3cc(C#N)cnn23)ncc1-c1nnc(C23CCC(NC(=O)CCC(=O)N[C@H](C(=O)N4C[C@H](O)C[C@H]4C(=O)N[C@@H](C)c4ccc(-c5scnc5C)cc4)C(C)(C)C)(CC2)CC3)s1` strictly below 0.04 µM?
A) 0 (no)

Q) # TODO verify DC50 < 0.04 µM strictly for this compound: CNc1cc(-c2ccc3cc(C#N)cnn23)ncc1-c1nnc(C23CCC(NC(=O)[C@H]4C[C@H]4C(=O)N[C@H](C(=O)N4C[C@H](O)C[C@H]4C(=O)N[C@@H](C)c4ccc(-c5scnc5C)cc4)C(C)(C)C)(CC2)CC3)s1 (mixture of isomers)
A) 0 (no)

Q) Take the compound CNc1cc(-c2ccc3cc(C#N)cnn23)ncc1-c1nnc([C@H]2CC[C@H](N(C)C(=O)CN3CCN(c4ccc5c(c4)C(=O)N(C4CCC(=O)NC4=O)C5=O)CC3)CC2)s1 (stereo partly drawn) and say whether its DC50 is less than 0.04 µM.
A) 1 (yes)

Q) Hi there! Is DC50 for CNc1cc(-c2ccc3cc(C#N)cnn23)ncc1-c1nnc(N2CCN(C(=O)C3CCN(c4cccc5c4C(=O)N(C4CCC(=O)NC4=O)C5=O)CC3)CC2)s1 (stereo not drawn) below 0.04 µM, do you know?
A) 0 (no)
